experiment: A549 lung cancer cell viability effects, profiling panel, resazurin fluorescence, 24 h, PK04 Diversity Set (AID 1171); details: higher = more signal, called active from +8 up or from −8 down; note: test concentration not given here

compound	z-score
C[C@H]1NC(=O)C([C@@H](C)OCc2ccccc2)NC(=O)[C@@]23C(=O)N[C@@H](Cc4ccccc4)C2[C@H](C)[C@@]2(C)O[C@H]2C3/C=C/C/C=C\CNC1=O (some centres not stated)	-0.214
O=C1OCCC/C=C\[C@H]2OC34C=CCN(Cc5ccccc5)C(=O)[C@H]3N(CCCCCO)C(=O)[C@@H]4C12 (some centres not stated)	1.37
CCCCCN1CC=CC23O[C@@H]4C=CCOC(=O)[C@@H]4[C@H]2C(=O)N(CCCCCO)[C@@H]3C1=O (some centres not stated)	-0.0947
C=CCC(OC(C)=O)[C@@H]1[C@@H](N(Cc2cc3ccccc3o2)C(=O)c2cccc3ccccc23)c2cc(OCCCO)ccc2N1C(=O)c1ccc2ccccc2c1 (some centres not stated)	-1.55
COC(=O)[C@@]1(Cc2ccc(OC)cc2)[C@H]2c3cc(C(=O)N4CCCC4)n(CCc4ccc(OC)c(Br)c4)c3C[C@H]2CN1C(=O)c1ccccc1	0.568
CO[C@H]1O[C@H](CO)[C@@H](OC(=O)Nc2ccc(C(F)(F)F)cc2)[C@H](OC(=O)Nc2ccccc2-c2ccccc2)[C@@H]1OC(=O)Nc1ccccc1-c1ccccc1	-1.35
CCCCN1CC=CC23O[C@@H]4/C=C\CCC(C)OC(=O)C4[C@H]2C(=O)N(C(C)CO)[C@@H]3C1=O (some centres not stated)	-0.016

###

Each entry below carries its reported z-score.
assay: basal HepG2 mitochondrial membrane potential changes, profiling panel, cell-based, JC-1 fluorescence, 24 h, 100 nL compound (AID 1167); conditions: higher = more signal; note: test concentration not given here

compound	z-score
CC(C)N1CC=CC23O[C@@H]4C=CCCOC(=O)C4[C@H]2C(=O)N(CCCCCO)[C@@H]3C1=O (some centres not stated)	0.77
NC(=O)[C@@]1(CCS(=O)(=O)c2ccccc2)COC(c2ccc(OCCCO)cc2)=N1	-0.522
C=CCC(OC(C)=O)[C@@H]1[C@@H](N(Cc2cccc3ccccc23)C(=O)c2ccc(C)cc2)c2cc(OCCCO)ccc2N1C(=O)c1ccc2ccccc2n1 (some centres not stated)	2.11
C=CCNC(=O)[C@H]1[C@@H]2C(=O)O[C@@H](c3ccccc3)[C@@H](c3ccccc3)N2[C@@H](c2ccccc2OCCO)[C@]12C(=O)N(C(=O)OCCOC)c1ccccc12	0.387
N#Cc1ccc(C(O)C2C=CC3C(=O)N(c4ccccc4)C(=O)C3N2Nc2ccc([N+](=O)[O-])cc2)cc1 (configuration not stated)	-2.66
C#CCN([C@H](/C=C/C1CC1)[C@@H](O)Cc1ccccc1)[C@@H](Cc1ccccc1)C(=O)OC	3.34
O=C1N(CCS(=O)(=O)c2ccccc2)c2ccccc2[C@@H]2OC(c3ccc(OCCCO)cc3)=N[C@]12CCS(=O)(=O)c1ccccc1	-1.04

###

system: glycogen synthase kinase-3 (GSK3A per assay name; protocol says GSK3B); test: GSK3 binders on small-molecule microarrays, primary screen, biochemical, small-molecule microarray, 635 nm fluorescence, GSK3A (AID 1103); conditions: small-molecule microarray binding, fluorescence 635 nm; higher = more signal; note: the record names both GSK3A and GSK3B
# composite z-score >= 0.4 gives 1, anything below gives 0

molecule	group.label
COc1ccc([Si](C)(C)[C@H]2[C@H](CCn3cc([C@H](O)c4ccccc4)nn3)O[C@@]3(C(=O)N(c4ccccc4)c4ccccc43)[C@@H]2C)cc1	0
CCOC(=O)C[C@H]1[C@H](OC(=O)c2cc3ccccc3oc2=O)[C@@H](NC(=O)C2CCCCC2)c2cc(OCCCO)ccc2N1C(=O)Cc1ccc(OC)cc1	1
COC(=O)[C@@H]1N=C(c2ccc(OCCCO)cc2)O[C@@H]1c1ccccc1CN=[N+]=[N-]	0
Cc1ccc(S(=O)(=O)N2[C@@H](c3ccccc3)C(C(=O)O)=CC[C@H]2c2ccc(C#N)cc2)cc1	0
C=C(CCCC)C(=O)CC[C@H](OC(=O)c1cccnc1)c1ccc(CO)o1	1
C=CCOC(=O)[C@H]1[C@@H]2C(=O)O[C@@H](c3ccccc3)[C@@H](c3ccccc3)N2[C@@H](c2ccc(OCCOC(=O)[C@@H]3C[C@@H]4C(=O)N[C@@H](CC(C)C)C(=O)N4[C@@H]3c3ccc(O)cc3)cc2)[C@]12C(=O)Nc1ccc(I)cc12	1
COCC(=C=CC[C@@H](O)c1cccc(OCCO)c1)C[C@@H](O)COCc1ccccc1	1
C=CCC(OC(C)=O)[C@@H]1[C@@H](N(Cc2ccc(-c3cccc(C(F)(F)F)c3)o2)C(=O)Cc2ccc(F)cc2)c2cc(OCCCO)ccc2N1C(=O)c1ccc2ccccc2c1 (some centres undefined)	0
C=CCC(OC(C)=O)[C@@H]1[C@@H](N(Cc2cc3ccccc3o2)C(=O)c2ccc(-c3ccccc3)cc2)c2cc(OCCCO)ccc2N1C(=O)c1ccc2ccccc2n1 (some centres undefined)	0
COCCOC(=O)N1C(=O)[C@@]2(c3cc(C#CCC(C(=O)OC)C(=O)OC)ccc31)[C@H](c1ccc(OCCO)cc1)N1[C@H](c3ccccc3)[C@H](c3ccccc3)OC(=O)[C@H]1[C@@H]2C(=O)N1CCCCCCC1	1
COC(=O)[C@@]1(Cc2ccc(F)cc2)[C@H]2c3cc(C(=O)N(C)C)n(CCO)c3C[C@H]2CN1C(=O)c1ccccc1	0
CCCCNC(=O)c1ccc(C#C[Si](C)(C)C)c(OC(C)=O)c1	1
O=C1NC(=O)C2C1C=CC(C(O)c1ccc(F)cc1)N2Nc1ccccn1 (centres undefined)	0
Cc1ccc(S[C@]2(C(=O)NCC(F)(F)F)CC(=O)N(C3CCCCC3)[C@@H]2c2ccc(CO)cc2)cc1	0

###

test: small-molecule binders of probe aNOTCH2, primary screen, biochemical, small-molecule microarray, 635/667 nm fluorescence (AID 1121); settings: higher = more signal;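 note: score merges feature fluorescence read at 667 nm with its signal to noise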
# composite z-score >= -0.1 gives true, anything below gives false

compound	group.label
C#CCN=C(N)N	true
COc1ccc(C(O)C2C=CC3C(=O)N(C)C(=O)C3N2Nc2ccc([N+](=O)[O-])cc2[N+](=O)[O-])cc1OCc1ccccc1 (configuration not stated)	true
COC(=O)C1=CC(CCCO)=CC(C2CC2)N(Cc2cccc(OC(F)(F)F)c2)C=C1C(=O)OC (configuration not stated)	false
CN(C)C(=O)[C@@]1(CCS(=O)(=O)c2ccccc2)N=C(c2ccc(OCCCO)cc2)O[C@H]1c1ccccc1N=[N+]=[N-]	false
COc1ccccc1CN1C(=O)c2ccccc2[C@](Cc2ccccc2I)(C(=O)NCCCN(C)C)[C@@H]1c1ccc(CO)cc1	false
C[C@H]1NC(=O)C([C@@H](C)OCc2ccccc2)NC(=O)[C@@]23C(=O)N[C@@H](Cc4ccccc4)C2[C@H](C)[C@@]2(C)O[C@H]2C3/C=C/C/C=C\CNC1=O (some centres not stated)	false

###

assay: splicing luciferase reporter signal modulators, primary screen, spliceosome inhibition project, cell-based, HEK293, splice +/- reporter (AID 1101); conditions: luminescence, 24 h, higher = more signal, called active from +8 up or from −8 down;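 note: HEK293 cells carrying a splicing-competent luciferase reporter gene; test concentration not given here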
# z-score >= -0.6 gives Yes, anything below gives No

compound	group.label
CC#CCO[Si](C#CCCCCCC)(C(C)C)C(C)C	Yes
CCc1cccc(NC(=O)O[C@H]2[C@H](OC(=O)Nc3ccc4c(c3)OCO4)[C@H](OC(=O)Nc3ccc4c(c3)OCO4)[C@@H](OC)O[C@@H]2CO)c1	No
N#Cc1ccc(C(O)C2C=CC3C(=O)N(c4ccccc4)C(=O)C3N2Nc2ccc([N+](=O)[O-])cc2)cc1 (centres undefined)	Yes
COCCOC(=O)N1C(=O)[C@@]2(c3cc(C#Cc4ccc(OC)cc4)ccc31)[C@H](C(=O)Nc1nc3ccccc3s1)[C@H]1C(=O)O[C@H](c3ccccc3)[C@H](c3ccccc3)N1[C@@H]2c1ccccc1OCCO	No
O=C(NCC(F)(F)F)[C@@H]1c2ccccc2C(=O)N(CC23CC4CC(CC(C4)C2)C3)[C@H]1c1ccc(CO)cc1	No
C=CCC(OC(C)=O)[C@@H]1[C@@H](N(Cc2cccc3ccccc23)C(=O)c2cccc3ccccc23)c2cc(OCCCO)ccc2N1C(=O)Cc1ccc2ccccc2c1 (some centres undefined)	Yes
C=CCC(OC(C)=O)[C@@H]1[C@@H](N(Cc2ccc(-c3cccc(C(F)(F)F)c3)o2)C(=O)Cc2ccc(F)cc2)c2cc(OCCCO)ccc2N1C(=O)c1ccc2ccccc2c1 (some centres undefined)	Yes
CCCCC(=C=CC[C@@H](O)c1cccc(OCCO)c1)C[C@@H](O)COCc1ccccc1	No
C=C(CCCC)C(=O)CC[C@H](OC(=O)c1cccnc1)c1ccc(CO)o1	Yes
COC(=O)[C@@]1(Cc2ccc(F)cc2)[C@H]2c3cc(C(=O)N(C)C)n(CCn4cc([N+](=O)[O-])nc4C)c3C[C@H]2CN1C(=O)c1ccccc1	Yes
COCCCNC(=O)[C@@H]1c2ccccc2C(=O)N(Cc2cc(C(F)(F)F)cc(C(F)(F)F)c2)[C@H]1c1ccc(CO)cc1	Yes
C=CCC(OC(C)=O)[C@@H]1[C@@H](N(Cc2cc3ccccc3o2)C(=O)Cc2ccc(OC)cc2)c2cc(OCCCO)ccc2N1C(=O)Cc1ccc(OC)cc1 (some centres undefined)	No
COc1ccc([Si](C)(C)[C@H]2[C@H](CC(=O)N3Cc4ccccc4C[C@H]3CO)O[C@@]3(C(=O)N(Cc4cccc(N5C(=O)c6cccc7cccc5c67)c4)c4ccccc43)[C@@H]2C)cc1	No
COCCOC(=O)N1C(=O)[C@@]2(c3cc(C#CCC(C(=O)OC)C(=O)OC)ccc31)[C@H](C(=O)N1CCc3cc(OC)c(OC)cc3C1)[C@H]1C(=O)O[C@H](c3ccccc3)[C@H](c3ccccc3)N1[C@@H]2c1ccc(O)cc1	Yes
CCOC(=O)C1=CC[C@@H](c2ccccc2Cl)N(S(=O)(=O)c2ccc(C)cc2)[C@H]1c1cccc(OC)c1	Yes
COCCOC(=O)N1C(=O)[C@@]2(c3cc(C#CCNC(N)=O)ccc31)[C@H](C(=O)NC[C@H](O)c1ccccc1)[C@H]1C(=O)O[C@H](c3ccccc3)[C@H](c3ccccc3)N1[C@@H]2c1ccc(OCCO)cc1	Yes
COC(=O)[C@@]1(Cc2ccc(F)cc2)[C@H]2c3cc(C(=O)N(C)C)n(CCN4CCOCC4)c3C[C@H]2CN1C(=O)c1ccccc1	Yes
COC(=O)[C@@]1(Cc2ccc(F)cc2)[C@H]2c3cc(C(=O)N4CCCC4)n(CCO)c3C[C@H]2CN1C(=O)c1ccccc1	Yes
CN(C)CCCC[C@@H]1NC(=O)[C@H]2C[C@@H](C(=O)NCc3ccc(F)cc3)[C@@H](c3ccc(O)cc3)N2C1=O	Yes
C=C(CCCC)/C(=C/C[C@H](OC(C)=O)c1cccc(OCCO)c1)c1cc(C(=O)OC)ccc1OC	Yes
O=C1C2C=CC(C(O)c3ccc([N+](=O)[O-])cc3)N(Nc3ccccc3)C2C(=O)N1c1ccccc1 (centres undefined)	Yes
O=C1C2C=CC(C(O)c3cccc(O)c3)N(Nc3ccccc3F)C2C(=O)N1c1ccccc1 (centres undefined)	No
